# System under test: XIAP BIR-3 (Homo sapiens)
# Construct: 40 nM of the BIR3 for 15 min at RT
# Sequence (P98170 241-356 limits assumed): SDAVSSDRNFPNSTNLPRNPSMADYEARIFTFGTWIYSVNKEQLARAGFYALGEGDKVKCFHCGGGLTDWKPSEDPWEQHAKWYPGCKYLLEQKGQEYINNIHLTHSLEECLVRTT
# Method: Fluorescence polarization binding to XIAP BIR-3 (competition with AbuRPF-K(5-Fam)-NH2)
# Experimental parameters: XIAP BIR-3 (default where cell does not indicate otherwise); reported as range class
pKd: −log10 of the molar value.
Entries and their pKd values follow.

Worked cases, pKd given:
* CN[C@@H](C)C(=O)N[C@H](C(=O)N1CC[C@H](OC)[C@H]1Cc1c(Cl)[nH]c2cc(F)ccc12)[C@@H](C)OC | > 7.00
* CN[C@@H](C)C(=O)N[C@H](C(=O)N1CC[C@@H](O)[C@H]1Cc1c(-c2ccc(F)cc2)[nH]c2ccccc12)C1CCCCC1 | < 7.00
* CCN[C@@H](C)C(=O)N[C@H](C(=O)N1CC[C@H](OC)[C@H]1Cc1c(Cl)[nH]c2cc(F)ccc12)[C@@H](C)OC | < 7.00
* CCN[C@@H](C)C(=O)N[C@H](C(=O)N1CC[C@H](OC)[C@H]1Cc1cn(C)c2cc(F)ccc12)[C@@H](C)OC | < 7.00

(Q) In one line, give reported pKd of the entry `CN[C@@H](C)C(=O)N[C@H](C(=O)N1CC[C@H](OC)[C@H]1Cc1c[nH]c2cc(F)ccc12)[C@@H](C)OC` .
(A) < 5.00

(Q) Item `CCN[C@@H](C)C(=O)N[C@H](C(=O)N1CC[C@H](OC)[C@H]1Cc1c[nH]c2ncccc12)[C@@H](C)OC` : provide pKd
(A) 5.00 to 6.00

(Q) Return reported pKd. Input compound: `CCN[C@@H](C)C(=O)N[C@H](C(=O)N1CCC[C@H]1Cc1c[nH]c2c1ccc[n+]2[O-])[C@@H](C)OC`
(A) < 7.00

(Q) Could you please provide reported pKd for `CN[C@@H](C)C(=O)N[C@H](C(=O)N1CC[C@H](OC)[C@H]1Cc1cn(C)c2cc(F)ccc12)[C@@H](C)OC` ? Thanks!
(A) > 7.00
